Recorded values, source the supplement of paper PMC10567573.

B1: RHOBTB3 (parent)
chain: VSHVFMLLFNVKSPTDIQDSSIIR

# Variants of: B1
# Assay procedure: protein stability index of a GFP-peptide fusion (GPS, HEK-293T) (PSI 1-6); higher = more stable;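 also: lentivirally expressed fusions sorted by FACS into six bins by GFP to DsRed ratio, PSI derived from sequencing read proportions per bin multiplied by bin number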
# Applied conditions: c terminus: a fixed tail appended
Hi there, I'd appreciate the recorded protein stability index for every entry that follows.
One number for each entry.

Record excerpt, results attached:
What value of measured protein stability index is listed for "D19H" ?
3.04

What value of measured protein stability index is listed for "S20D" ?
2.91

---
What value of measured protein stability index is listed for "I22L" ?
2.98
